// reported kon per item
Target: T1, IL1-RAP (antigen of the kinetic measurements of Tables 5A and 5B) (human, UniProt Q9NPH3 21-359, limits assumed)
T1 sequence: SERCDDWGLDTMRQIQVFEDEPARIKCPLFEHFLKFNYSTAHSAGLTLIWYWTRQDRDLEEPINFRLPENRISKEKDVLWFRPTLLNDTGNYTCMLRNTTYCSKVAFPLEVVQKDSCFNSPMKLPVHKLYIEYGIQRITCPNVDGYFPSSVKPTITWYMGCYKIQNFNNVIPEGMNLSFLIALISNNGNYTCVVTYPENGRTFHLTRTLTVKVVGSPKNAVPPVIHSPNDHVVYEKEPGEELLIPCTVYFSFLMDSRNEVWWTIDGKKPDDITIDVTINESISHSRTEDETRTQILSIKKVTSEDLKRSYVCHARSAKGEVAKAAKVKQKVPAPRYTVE
Test: kinetics, Table 5B; method and antigen form not stated
API: value field is a number in M⁻¹ s⁻¹; no unit string.

Previously resolved entries follow.
INSERT INTO results (binder, quantity_kind, recorded_result) VALUES
  ('chimeric 54.9D7 (antibody, V domains shown, Chimeric antibody; also called Chi54.9D7) VH: HVQLQQSGPELVRPGASVKLSCKASGYIFITYWMNWVKQRPGQGLEWVGQIFPASGTTYYNELFEGKATLTVDTSSNTAYMHLTSLTSEDSAVYYCARTDFYRYDGGYALDYWGQGTSLTVSS VL: DIVLTQSPISLAVFLGQRATISCRASQSVSTSGYSSMHWYQQKAGQPPKLLIKYASDLESGVPVRFSGSGSGTDFILNIHPVEVEDIATYYCHHSWGIPMYTFGGGTKLEIKR', 'kon', 158000),
  ('humanized clone of 54.9D7 hH3L3 (antibody, V domains shown, Humanized; also called 54.9D7 H3L3) VH: QVQLVQSGAEVKKPGASVKLSCKASGYIFITYWMNWVRQAPGQGLEWVGQIFPASGTTYYAQKFQGRATLTVDTSTSTAYMELSSLRSEDTAVYYCARTDFYRYDGGYALDYWGQGTLLTVSS VL: DIQLTQSPSSLSASVGDRATITCRASQSVSTSGYSSMHWYQQKPGKAPKLLIKYASDLESGVPSRFSGSGSGTDFTLTISSVQPEDFATYYCHHSWGIPMYTFGQGTKLEIKR', 'kon', 193000),
  ('humanized clone of 54.9D7 hH2L3 (antibody, V domains shown, Humanized; also called 54.9D7 H2L3) VH: QVQLVQSGAEVKKPGASVKVSCKASGYIFITYWMNWVRQAPGQGLEWVGQIFPASGTTYYAQKFQGRVTMTVDTSTSTVYMELSSLRSEDTAVYYCARTDFYRYDGGYALDYWGQGTLVTVSS VL: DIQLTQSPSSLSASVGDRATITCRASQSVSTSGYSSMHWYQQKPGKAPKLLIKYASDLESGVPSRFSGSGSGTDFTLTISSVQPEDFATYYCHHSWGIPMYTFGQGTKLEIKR', 'kon', 169000);

Prompt: Name the recorded kon for humanized clone of 54.9D7 hH1L3 (antibody, V domains shown, Humanized; also called 54.9D7 H1L3) VH: QVQLVQSGAEVKKPGASVKVSCKASGYIFITYWMNWVRQAPGQGLEWMGQIFPASGTTYYAQKFQGRVTMTRDTSTSTVYMELSSLRSEDTAVYYCARTDFYRYDGGYALDYWGQGTLVTVSS VL: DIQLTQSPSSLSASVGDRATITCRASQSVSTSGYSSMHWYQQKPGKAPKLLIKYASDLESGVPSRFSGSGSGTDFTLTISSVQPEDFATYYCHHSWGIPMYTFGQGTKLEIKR .
Response: 164000
